tested on: NCI-H460 lung; assay: NCI-60 one-dose screen, 48 h; details: 10 µM unless noted
Compounds without any hit were thinned out: in the full panel of roughly 83,000, 20% have a hit. Activity calls are given as the source filed them. The calls were made as follows: active = growth percent below 10; inactive = the rest.
Pick one and only one: active, inactive

Query: Please indicate how the test categorized COc1cccc(NCc2nnc(Nc3ccc(Cl)cc3)c3ccccc23)c1 .
Result: active

Query: Moving on to the next compound: COC(=O)/C=C1/SC(=Nc2ccc([N+](=O)[O-])cc2)N(CCc2c[nH]c3ccc(O)cc23)C1=O
Result: inactive

Query: Let us now turn to Nc1ccc(-c2csc(-n3[nH]c(=O)ccc3=O)n2)cc1
Result: inactive

Query: Consider next the compound CCN1CCN(CC(=O)Nc2nc3ccc(NCc4ccc(F)cc4)cc3s2)CC1 in the same way.
Result: inactive

Query: Also, O=S(=O)(NCCNc1nccc(-c2c(-c3ccc(F)c(O)c3)nc3sccn23)n1)c1ccc(F)cc1 please.
Result: inactive

Query: Now try CCOC(=O)c1c(C)nc2ccccc2c1/C=C/c1ccccc1 .
Result: inactive

Query: Another compound: CCc1ccc(CCC(=O)Nc2ncc(Cc3ccccc3)s2)o1
Result: active

Query: Again, but for Cc1n[nH]c2ccc(Br)cc2c1=O
Result: inactive

Query: Do the same for NS(=O)(=O)c1ccc(C(=O)NN2C(=O)c3c(Br)c(Br)c(Br)c(Br)c3C2=O)cc1 please
Result: inactive

Query: Then what about the compound CCN(CC)CCCOc1ccc2ncnc(Nc3ccc(Oc4cccc(C(F)(F)F)c4)c(Cl)c3)c2c1 ?
Result: active

Query: Then Fc1ccc(Cn2cc(CSc3nc4ccccc4o3)nn2)cc1 ?
Result: inactive

Query: Now consider N#Cc1c(Nc2ccc(N3CCOCC3)cc2)nc(SCC(=O)c2ccc(Br)cc2)nc1-c1ccccc1 .
Result: inactive

Query: And what about the compound NC1=Nc2cc(OCCCCN3Cc4ccccc4C3)c(OCC3CC3)cc2C12CCCC2 ?
Result: inactive

Query: Queued: Nc1nc2c(c3ncccc13)C(c1cccc(Cl)c1)Cc1ncccc1-2 (stereo not drawn)
Result: active

Query: Check COC(=O)c1nc(-c2ccccc2)oc1S(=O)(=O)NCC(c1ccc(Cl)cc1)N1CCOCC1 (stereo not drawn) too.
Result: inactive

Query: Can you check C#Cc1cccc(Nc2nc(C)nc3cc(NC(=O)CCl)ccc23)c1 next?
Result: active

Query: Record: C=CCn1c(SCC(=O)Nc2ccc(/C(C)=N/O)cc2)nnc1-c1cc(-c2ccc(S(N)(=O)=O)cc2)nc2ccccc12
Result: inactive

Query: Next up: C#COc1cccc(Nc2ncnc3cc(NC(=O)[C@@H](C)Cl)ccc23)c1
Result: active

Query: Please do the same for O=C1/C(=C/c2ccc(O)c(O)c2)COc2ccc(-c3ccccc3)cc21 as well.
Result: inactive

Query: Also Cn1cc(-c2csc(-c3cn(CCCN4CCOCC4)c4ccccc34)n2)c2cccnc21 , if possible.
Result: inactive

Query: And N#CC1=C(N)Oc2ccc3ccccc3c2C1c1ccc([N+](=O)[O-])cc1 (stereo not drawn) ?
Result: inactive

Query: For CCN(CC)CCN1C(=O)c2cccc3c(/C=C/CN4C(=O)c5cccc6cccc(c56)C4=O)ccc(c23)C1=O then?
Result: inactive

Query: Check CN(CCC(=O)c1ccccc1)CCC(=O)c1ccccc1 too.
Result: inactive

Query: Repeat for the following compound: Cc1nn(-c2ccccc2)c(N)c1N=C1NC(=O)/C(=C/c2ccc(Br)cc2)S1
Result: inactive

Query: Let us now turn to FC(F)(F)Oc1cccc(-c2cnc3ccc(-c4ccncc4)nn23)c1
Result: inactive

Query: One more compound: CC1(C)C(N)=Nc2cc(OCCCN3Cc4ccccc4C3)c(OCC3CC3)cc21
Result: inactive

Query: Can you handle C=CCC(CCCC)(C(=O)OCC)C(=O)OCC next?
Result: inactive

Query: Now try COc1cccc(Nc2ncnc3cc(NC(=O)CCl)ccc23)c1 .
Result: active

Query: What do we get for Cc1cc(Nc2ccc(C(=O)N3CCCC3)cc2)nc(NCCCNc2ccnc3cc(Cl)ccc23)n1 ?
Result: inactive

Query: Can you check O=C(Nc1cc(Cl)ccc1O)c1cccc(Nc2ccnc(C(F)(F)F)c2)c1 next?
Result: inactive

Query: Cool, now C=CC(=O)Nc1ccc(Oc2nccc(Nc3nnc(-c4ccc(C)cc4)s3)n2)cc1
Result: inactive

Query: Here is the next compound: COc1cc(-c2nc3cc(Cl)c(Cl)cc3[nH]2)ccc1OCC(=O)N=Nc1c(O)[nH]c2ccc(Cl)cc12
Result: active

Query: Now consider CCN1C(=O)N(CC)C2C1N=C(SCc1ccc(Cl)cc1)N2/N=C/C=C/c1ccccc1OC (stereo not drawn) .
Result: inactive
